// unfolding enthalpy (van 't Hoff) lookup, one value per entry
B1: Ribonuclease HI, P0A7Y4 (parent)
chain: MLKQVEIFTDGSCLGNPGPGGYGAILRYRGREKTFSAGYTRTTNNRMELMAAIVALEALKEHCEVILSTDSQYVRQGITQWIHNWKKRGWKTADKKPVKNVDLWQRLDAALGQHQIKWEWVKGHAGHPENERCDELARAAAMNPTLEDTGYQVEV

variants of: B1; conditions: Escherichia coli (strain K12); pH 3; Thermal; CD; glycine-HCl 10 mM; reversible: yes; structure 2RN2; whole UniProt chain shown

variant.designation: S68A
units.of.measure: kcal/mol
unfolding enthalpy (van 't Hoff): 89
--
variant.designation: S68L
units.of.measure: kcal/mol
unfolding enthalpy (van 't Hoff): 84
--
variant.designation: S68V
units.of.measure: kcal/mol
unfolding enthalpy (van 't Hoff): 98.8
--
variant.designation: S68T
units.of.measure: kcal/mol
unfolding enthalpy (van 't Hoff): 106
--
variant.designation: S68G
units.of.measure: kcal/mol
unfolding enthalpy (van 't Hoff): 84.7
